# TEST DESCRIPTION: soluble fraction after stress (log2 fold change); higher = more stays soluble; pooled small domains, quantitative proteomics
# CONDITION SUMMARY: stress: pH 4
Could you label it 1 if measured soluble fraction (log2) is -0.6 or higher, and -1 otherwise?

Quick check: does HMVVVPDVKGLKIEEAAEFFKNNNLHYNVIDSVFSKDVEPGAIVELSPLAGSKVKEGRIVFITVNALTS have soluble fraction (log2) greater than or equal to -0.6?
-1

Quick check: does HMYRIGELAKLADVTPDTIRYYEKQQMMDHDVRTEGGFRLYSDNDLQRLKFIRYARQLGFTLEAIRELLSI have soluble fraction (log2) greater than or equal to -0.6?
1

Quick check: does HMSKQQFLDELAARLREEGAELLVAENLNFYRSYIEEEVAKGRSEEEVLAELGNPALIARSILDAAGF have soluble fraction (log2) greater than or equal to -0.6?
-1

Quick check: does HMANSANARKSLVSKLIAGGKIASQSDLVKALKKQGIVVTQGTASRDLEDIGAIRVRNSEGEIVYALT have soluble fraction (log2) greater than or equal to -0.6?
1

Quick check: does HMPQVALAIDEMKRELASPDIVKTLLATTFKGLSEVNMRQAMLDGMIQGHTIADFFKKDVYAIPFGSGYSL have soluble fraction (log2) greater than or equal to -0.6?
1

Quick check: does HMNGEDVTDAIRLPQISQYASVVSAYPGVRAFLLEMQRDFARKGSVIMDGRDIGTVVLPEAEVKIFLT have soluble fraction (log2) greater than or equal to -0.6?
1

Quick check: does HMDLQHQLTPRLKRLRLSGILETLEVRNQQAIAEKWSYVEFLTRLAEDEVERRDHKQLTLRLR have soluble fraction (log2) greater than or equal to -0.6?
1

Quick check: does HMVSLSENQKIVLESLNTAMSARELMEILNLSDISHFRRNILNPLLLEGLIVRTKPDKPKSSKQKYIKANF have soluble fraction (log2) greater than or equal to -0.6?
1

Quick check: does HMNNLELSEEEKSVLTIIEKEGLIELDKLKTKLELSNKKWDKTLKFLTKNKLAKVVKNDNGLFVEL have soluble fraction (log2) greater than or equal to -0.6?
1

Quick check: does HMVEAIDQALIEKQIQAVLQENSAAVKKYQAGKTEVLAFLIGQSMRKIAKKVDANLVKNILLEQLKNK have soluble fraction (log2) greater than or equal to -0.6?
1

Quick check: does HMVMATPHNTAKAGDIAKTVIMPGDPLRAKYIADNYLDNAVQFNVVRNIYGYTGVYRGTDISVMASGM have soluble fraction (log2) greater than or equal to -0.6?
1

Quick check: does HMSTPLPTGLPRGTIIEYTVQTDETLAIIAAKFNSTVDDIMTRNKITDPNTIYAGQILKVAINLVTP have soluble fraction (log2) greater than or equal to -0.6?
1

Quick check: does HMDSTDSIIHYVRAHRSLEVKNLSFAEARFKKVVELEPNFARGWLGLGEVSILKNNFENASIYLDKALE have soluble fraction (log2) greater than or equal to -0.6?
1

Quick check: does HMHVSLSGKIHSELRKLILNGELKAGERLPSEPDLAHELGVSRNSLREAIGLLQREGLLLKKHGIGTFVTD have soluble fraction (log2) greater than or equal to -0.6?
1

Quick check: does HMAAMDMFVKLDALDAELTEQLKALPAEPDDARVERGLALLTDYDHRIKALLTEIFGGENDFDKVL have soluble fraction (log2) greater than or equal to -0.6?
-1

Quick check: does HMEDELVMERFDINELVKSVVNANELRATQKNLSITYDILDTPLYVWADEYKVEEVVTNYLS have soluble fraction (log2) greater than or equal to -0.6?
-1

Quick check: does HMQNDDLTKLDGIGPYIEQRLNDIGIYNYEQLSKLNTEDIQKITELIDFFPGRIERDNWVSQAQLLKI have soluble fraction (log2) greater than or equal to -0.6?
-1

Quick check: does HMAVKLELYRVFKEVAETGNISAAAKNLYISQSAVSQSIKQLETALQARLFARSPRGVTLTGEGQMLYQYV have soluble fraction (log2) greater than or equal to -0.6?
-1

Quick check: does HMDDADPYEILGVERDAEDAEIKRAYHDLIRENHPDRLMAEGLPQEMIDVANEKVAFINDAYDRIEKLRGM have soluble fraction (log2) greater than or equal to -0.6?
-1

Quick check: does HMLSPPWYEYHRKVQAMFGRDPEVHIKDLDDLGDGKFSYMILVYNKEKAEAIKAILPQKVEMGNVTIETAI have soluble fraction (log2) greater than or equal to -0.6?
1

Quick check: does HMSHPNAPLTPEGRRRLAVLIVEDGWTIRRAAERFQVSPATASKWARRYRAGESLTDRSSRP have soluble fraction (log2) greater than or equal to -0.6?
1

Quick check: does HMITANNYFNEVERIGVETLPETLRKGHDLVVRSTNSGTNWSNYQNNESIRKVIDLYLQKLNEYVSTST have soluble fraction (log2) greater than or equal to -0.6?
-1

Quick check: does HMDLLVWRVADEDAGERIDKLVVDSLDDVSRTAVQQWIKDGLVTVNGKTVKPNYKAAAGDEVAVSVPEPE have soluble fraction (log2) greater than or equal to -0.6?
1

Quick check: does HMNTPHLTPREREVLKGIVDGLINKEIAARMGVSVATVITHRNNLTEKLGTRSVSALTIFAVMHGIVR have soluble fraction (log2) greater than or equal to -0.6?
1

Quick check: does HMLDPKVFVGKAGINEGIAKLLLQAFDKADLVKVRFTAERDVMETQMQELARLTGSEVIGNVGRTATF have soluble fraction (log2) greater than or equal to -0.6?
1

Quick check: does HMADLIIMSSDATEKQVDKVINKIKNMGFNVNISKGTEKTIIGIIGDTRGISDEVFKIMPGVIEVISILRD have soluble fraction (log2) greater than or equal to -0.6?
1

Quick check: does HMDDKLKKLEEVFEMQEGTLTPDMRLDELEEWDSMTRLSLIVMMEDDYGKKVKRSEVMNYTTVQDIVDSME have soluble fraction (log2) greater than or equal to -0.6?
-1

Quick check: does HMGLTLREKMGHVLEMLKGREFLPFVSLFTVEEGRIGVVVTFMSILELVKEGILDLVQTESFGPIHVKAR have soluble fraction (log2) greater than or equal to -0.6?
1

Quick check: does HMQIIETTVGRVLFNEKVPEAAGYINEVLTKKSLRDIIHGILKKTSVPETAAFLDEIKSLGYNFAF have soluble fraction (log2) greater than or equal to -0.6?
1

Quick check: does HMTGELEVTAAGLSPEKLLNLAAKNHITLSNVKRLSYTQLSFRIGPADYNRLKKLLPEGRYKLNVGSS have soluble fraction (log2) greater than or equal to -0.6?
1

Quick check: does HMAPKVTLNETETAIFEKMQQEKQLLLSELRTHFDISNKLWDTSIKTLTKNQLLTVSKEADLLWIKL have soluble fraction (log2) greater than or equal to -0.6?
-1

---

I'd appreciate it if you could supply soluble fraction (log2) values for the items below.
# TEST DESCRIPTION: soluble fraction after stress (log2 fold change); higher = more stays soluble; pooled small domains, quantitative proteomics
# CONDITION SUMMARY: stress: pH 4
Answer field: number only, no words.

// query soluble fraction (log2) value for entry HMLTTVAAQRAALHQEEDITKLREIILKLVPFWGLDGGAYADKETSIQLERQYRESFDQAVSAARRSGQA
-0.234

// query soluble fraction (log2) value for entry HMVMSTDAELILEYLAKHQGEMEITDKSSPELIMDTFNMSKGAFKRALGSLYKSKTVVIESTKVLLNT
-0.0971

// query soluble fraction (log2) value for entry HMPLPLYVQIKESLRGQIFDGTYGEHERLPSENDLMSSFGVSRITVRQALSDLEKEELIFKVPGKGAFVSR
-1.28

// query soluble fraction (log2) value for entry HMLYDNQLPDWAGQMVKNHGLTISPKALVILVDHIGNDLSRIENEIEKLMLNLGTRKSITEDDVEN
-1.34

// query soluble fraction (log2) value for entry HMVLSVRERMGIVLEKVNTETFTDFKELFTVEEGRAGAIVSLLAILQLMKDSLIQLVQNEPNGPIYVKAA
0.22

// query soluble fraction (log2) value for entry HMNHLSYEQRLKIKEMLDGGFKKIDIARALGVHNATIYREIERGSVNGIYNPNKSEEQYRDHLSEK
0.0704

// query soluble fraction (log2) value for entry HMDGFVFVMPIKETRMFSVNDERPLVGIVKYSNGEFEKEQLIGFRPNSEYEFIIEGQRLYRVPVNSITIK
-1.25

// query soluble fraction (log2) value for entry HMDLFSAVVHHIVGQQISTKAQATIWKRMRDEFGVVDAAAVLGAGVEKLQSFGMTFRKAEYITDFARKIE
-0.651

---

# TEST DESCRIPTION: soluble fraction after stress (log2 fold change); higher = more stays soluble; pooled small domains, quantitative proteomics
# CONDITION SUMMARY: stress: pH 4
Could you label it Condition met if measured soluble fraction (log2) is -0.8 or higher, and Condition not met otherwise?

Quick check: does HMTYADTRDLLIRRGMELLTEQGIAATSIERVLQSTGIPKGSFYHYFATKHDFTLAVMDAYHHY have soluble fraction (log2) greater than or equal to -0.8?
Condition met

Quick check: does HMKKILLGDVNLDGKVDVNDVTLLQRYIAGETEVITSKDALTATNFNKDGNIDVLDVTDIQTFIANSE have soluble fraction (log2) greater than or equal to -0.8?
Condition met

Quick check: does HMVSKEELANSIYENKTADELGNIVLRKGKYSGEMLRTIYVKDIGYLEWHSKQSYEYSNAVKWYLKKLE have soluble fraction (log2) greater than or equal to -0.8?
Condition not met

Quick check: does HMPTNSDRLIGSDGVVSSKIDNLQGTGKVYISGLTWSARTIDGSEAEEGDIVTVEKIEGATLYVTKR have soluble fraction (log2) greater than or equal to -0.8?
Condition met

Quick check: does HMATEYIIPTVTNKKLEEAIGIAQLRGFEISVDEYKPSDIDEGTVLEQSPAAGTNAKQGDTISVTVSSG have soluble fraction (log2) greater than or equal to -0.8?
Condition met

Quick check: does HMRDGHEQLQGVLSAIKFHQANFLIGVLDDGTTVKGNMLSPQVGLEYTFRGRRERHPRWGEQFAFMDYRV have soluble fraction (log2) greater than or equal to -0.8?
Condition not met

Quick check: does HMKLNETIAEARKRKGLTQEQLAQKLYVTRQAVSRWERGEVVPGIDMLKLIAITLEEPIVHLL have soluble fraction (log2) greater than or equal to -0.8?
Condition met

Quick check: does HMSTYTETETAYLKAYSAAGVDGKISDSERGILNMTAEALGITVERTTELEAMFNLTVEEEA have soluble fraction (log2) greater than or equal to -0.8?
Condition not met
